Target: human GSK-3β (Homo sapiens)
Sequence (P49841 whole entry): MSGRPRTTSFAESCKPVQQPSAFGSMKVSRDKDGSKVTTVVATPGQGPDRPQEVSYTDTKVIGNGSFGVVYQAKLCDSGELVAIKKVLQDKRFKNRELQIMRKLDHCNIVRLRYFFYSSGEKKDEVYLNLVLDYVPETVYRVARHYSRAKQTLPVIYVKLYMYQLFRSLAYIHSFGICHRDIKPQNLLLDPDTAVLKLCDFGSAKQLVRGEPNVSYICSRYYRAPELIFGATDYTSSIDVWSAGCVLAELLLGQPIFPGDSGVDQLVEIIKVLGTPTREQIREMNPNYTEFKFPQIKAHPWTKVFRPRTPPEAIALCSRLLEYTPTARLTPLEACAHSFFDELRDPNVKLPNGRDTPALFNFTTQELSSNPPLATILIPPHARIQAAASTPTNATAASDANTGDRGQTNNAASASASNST
Test: In vitro GSK-3β inhibition: phosphorylation of primed substrate
Type: biochemical
pIC50: −log10 of the molar value.
readout-type: pIC50

> print(dat)
                                   molecule  readout.type  measured.result
1  O=C1NC(=O)C(c2cn(C3CCN(Cc4ccncc4)CC3)c3ccccc23)=C1c1coc2ccccc12 [Compound 3j]         pIC50             7.19
2  O=C1NC(=O)C(c2cn(C3CCN(C(=O)c4cnccn4)CC3)c3ccccc23)=C1c1coc2ccccc12 [Compound 3o]         pIC50             8.40
3  O=C1NC(=O)C(c2cn(C3CCN(C(=O)c4ccncc4)CC3)c3ccccc23)=C1c1coc2ccccc12 [Compound 3n]         pIC50             8.40
